Each recorded value in this set is attributed to paper PMC7525811.

target: full-length human CRM1(E571K) (human, UniProt O14980 1-1071, E571K); assay: differential photobleaching
Sequence (O14980 whole entry E571K): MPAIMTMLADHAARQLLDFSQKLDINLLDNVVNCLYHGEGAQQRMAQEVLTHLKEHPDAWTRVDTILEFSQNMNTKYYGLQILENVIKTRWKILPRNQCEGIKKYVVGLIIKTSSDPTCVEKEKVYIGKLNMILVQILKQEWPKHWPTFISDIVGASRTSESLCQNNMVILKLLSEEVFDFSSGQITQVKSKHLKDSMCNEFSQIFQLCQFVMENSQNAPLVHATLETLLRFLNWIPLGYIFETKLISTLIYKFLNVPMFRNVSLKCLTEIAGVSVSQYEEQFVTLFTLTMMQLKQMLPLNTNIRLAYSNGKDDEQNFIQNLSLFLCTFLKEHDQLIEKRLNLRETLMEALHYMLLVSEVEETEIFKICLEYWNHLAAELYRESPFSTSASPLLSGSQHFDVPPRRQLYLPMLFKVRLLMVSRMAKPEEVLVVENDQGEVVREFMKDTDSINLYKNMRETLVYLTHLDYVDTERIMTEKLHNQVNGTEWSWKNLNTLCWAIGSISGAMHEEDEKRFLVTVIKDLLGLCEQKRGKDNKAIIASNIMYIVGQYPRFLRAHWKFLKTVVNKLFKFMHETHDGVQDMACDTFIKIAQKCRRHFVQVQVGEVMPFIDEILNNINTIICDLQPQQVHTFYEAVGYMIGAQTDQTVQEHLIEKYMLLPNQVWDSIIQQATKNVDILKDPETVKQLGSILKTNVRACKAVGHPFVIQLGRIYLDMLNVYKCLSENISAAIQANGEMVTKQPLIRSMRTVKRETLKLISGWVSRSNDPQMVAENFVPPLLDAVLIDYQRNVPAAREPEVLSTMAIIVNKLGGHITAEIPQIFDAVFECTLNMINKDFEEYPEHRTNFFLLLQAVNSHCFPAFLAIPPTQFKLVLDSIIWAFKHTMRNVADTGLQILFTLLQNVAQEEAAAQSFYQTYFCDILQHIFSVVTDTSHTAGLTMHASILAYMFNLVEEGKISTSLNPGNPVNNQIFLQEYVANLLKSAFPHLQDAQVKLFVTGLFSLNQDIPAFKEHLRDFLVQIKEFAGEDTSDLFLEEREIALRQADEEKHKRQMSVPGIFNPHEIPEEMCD
pKd: −log10 of the molar value. No end group written: not given here. MBP = not defined here
Entries and their pKd values follow.
parameter measured: pKd

>>> print(df.to_string())
                                     binder  data_value
0       REELWKKLEELKLKK [MBP-PP2A B56α^NES]        4.42
1        SSLQELVQQFEALPGDLV [MBP-X11L2^NES]        5.89
2      RELDELMASLSDFKFMA [MBP-Paxillin^NES]        5.51
3  SVEEVEAGLKGLKVDQQVK [MBP-eIF4E-transporter NES (4E-T^NES)]        4.85
4  {MBP}-EQMVKELQEIRLEPQ (reading uncertain) [MBP-Iκβα^NES]        4.68
5         RSFEMTEFNQALEEIKG [MBP-hRio2^NES]        5.72
6  {MBP}-SLVLLPFDDLKISG (reading uncertain) [MBP-Iκβε^NES]        4.92
